Task for the reader: assign each of the following binders its reported Kd.
STUDY_SYSTEM: T1, Human CD3εδ Fc heterodimer (Hu CD3ε Fc + CD3δ Fc-HIS) (human, UniProt P07766 22-126; P04234 22-100)
T1 construct: range 22-126;range 22-100; Made in HEK 293 cells with a heterologous signal peptide; also called Hu CD3εδ-Fc; CD3εδ Fc-HIS heterodimer; not shown: Fc; Fc followed by HIS tag
T1 sequence (P07766 22-126, stated change not applied, form in doubt, chain 1 of 2): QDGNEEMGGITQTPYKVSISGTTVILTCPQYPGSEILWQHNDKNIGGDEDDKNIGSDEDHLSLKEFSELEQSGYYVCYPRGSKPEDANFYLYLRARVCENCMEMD
T1 sequence (P04234 22-100, stated change not applied, form in doubt, chain 2 of 2): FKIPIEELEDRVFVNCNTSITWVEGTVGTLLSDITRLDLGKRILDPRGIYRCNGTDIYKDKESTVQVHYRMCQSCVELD
RUN_DESCRIPTION: SPR (Biacore), Fab over immobilized CD3εδ Fc, pH 7.4
Your answer should be a plain number; it is taken to be in nM.

Specify Kd for Antibody No. V014 (ADI-76357) Fab (Fab, V domains shown, Fab by papain digestion of the IgG1) VH: QVQLVQSGAEVKKPGASVKVSCKASGFDIKDYYMHWVRQAPGQRLEWMGWIDLENANTIYDAKFQGRVTITRDTSASTAYMELSSLRSEDTAVYYCARDQYGRYFYDVWGQGTLVTVSS VL: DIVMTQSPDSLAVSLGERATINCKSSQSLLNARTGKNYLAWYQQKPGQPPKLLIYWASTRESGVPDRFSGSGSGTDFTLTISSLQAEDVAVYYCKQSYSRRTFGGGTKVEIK and stop.
11

Specify Kd for Antibody No. V016 (ADI-76359) Fab (Fab, V domains shown, Fab by papain digestion of the IgG1) VH: QVQLVQSGAEVKKPGASVKVSCKASGFDIKDYYMHWVRQAPGQRLEWMGWIDLENANTIYDAKFQGRVTITRDTSASTAYMELSSLRSEDTAVYYCGRDAYGRYFYDVWGQGTLVTVSS VL: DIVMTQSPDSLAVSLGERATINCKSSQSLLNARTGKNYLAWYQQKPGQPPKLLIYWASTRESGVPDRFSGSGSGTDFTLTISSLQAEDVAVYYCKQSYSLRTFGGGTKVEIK and stop.
14

Specify Kd for Antibody No. A001 (ADI-26906) Fab (Fab, V domains shown, Fab by papain digestion of the IgG1) VH: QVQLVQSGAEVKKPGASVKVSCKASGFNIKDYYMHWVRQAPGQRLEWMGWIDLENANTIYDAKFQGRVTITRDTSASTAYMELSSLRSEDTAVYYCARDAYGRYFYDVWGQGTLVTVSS VL: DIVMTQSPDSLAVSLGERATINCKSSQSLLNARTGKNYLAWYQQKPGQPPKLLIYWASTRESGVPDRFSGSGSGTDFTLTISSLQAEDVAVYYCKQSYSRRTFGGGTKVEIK and stop.
1.1

Data provenance: patent US20240317858A1
